Tested on: P. falciparum stage V gametocytes
Design: BacTiter-Glo ATP luminescence viability of purified stage V gametocytes in 384-well plates, per cent inhibition versus DMSO
Details: 48 h, 5 µM; inhibitor
Out of some 13,000 compounds screened, about 3,200 (25%) showed an effect of 50% or more. This is one part of the list.
PROPERTY: % Inhibition (%)
Give just the numeric value; % need not be written.

Notebook: COc1cc(OC)cc(-c2nn(-c3ccc([N+](=O)[O-])cc3C#N)c(=S)n2CC2CCCO2)c1 (stereo not shown) [TCMDC-134716] , % Inhibition read as 96.39

Notebook: COc1cc(OC)cc(-c2nn(-c3ccc([N+](=O)[O-])cc3Cl)c(=S)n2CC2CCCO2)c1 (stereo not shown) [TCMDC-135129] , % Inhibition read as 88.54

Notebook: N#Cc1ccc(Sc2nnc(-c3ccccc3Cl)n2CC2CCCCC2)cc1[N+](=O)[O-] [TCMDC-135616] , % Inhibition read as 15.71

Notebook: COc1cccc2cc(C(=O)N[C@@H](CC(C)C)C(=O)NC3CC[C@@H](C)N(C(=O)Nc4ccncc4)CC3=O)oc12 (stereo partly shown) [TCMDC-134320] , % Inhibition read as -6.979

* * *

System: P. falciparum stage V gametocytes
Design: BacTiter-Glo ATP luminescence viability of purified stage V gametocytes in 384-well plates, per cent inhibition versus DMSO
Conditions: 48 h, 5 µM; inhibitor
The campaign covered roughly 13,000 compounds. About 3,200 (25%) showed an effect of 50% or more. Some of the results follow.
PROPERTY: % Inhibition
Enter the number, and then the unit.

                                   compound                    subject_of_test      property  obs_value
0  Cc1cccc2[nH]c(-c3cccc(-c4cccc(NC(=O)Nc5ccc(Cl)cc5)c4)c3)nc12 [TCMDC-133179]  P. falciparum stage V gametocytes  % Inhibition    -25.81%
1  CCOC(=O)c1cccc(NC(=O)Nc2cccc(-c3ncc(OCCCN)c4c3nc(-c3nonc3N)n4CC)c2)c1 [TCMDC-136205]  P. falciparum stage V gametocytes  % Inhibition     109.2%
2  CCCNCCc1ccc(NS(=O)(=O)c2cccc(-c3ccc(Cl)cc3)c2)cc1 [TCMDC-141448]  P. falciparum stage V gametocytes  % Inhibition     32.49%
3  CCCN(CCCCCCN(CCC)CCc1ccc(O)c(O)c1)CCc1ccc(O)cc1 [TCMDC-131259]  P. falciparum stage V gametocytes  % Inhibition    -3.325%
4  CC(C)C[C@H](Nc1ccnc(NCC2CCCCC2)n1)C(=O)NCCOc1ccccc1 [TCMDC-134712]  P. falciparum stage V gametocytes  % Inhibition     15.38%

Next, consider the following compound.
Short answer on P. falciparum stage V gametocytes for CN(C)CCNC(=O)c1ccc(-c2ccc3c(Nc4ccccc4)c(C(N)=O)cnc3c2)cc1 [TCMDC-138672] , % Inhibition: 14.13%

* * *

Each entry below lists one item and its recorded % Inhibition value.
Test system: P. falciparum stage V gametocytes
Parameters: BacTiter-Glo ATP luminescence viability of purified stage V gametocytes in 384-well plates, per cent inhibition versus DMSO
Conditions: 48 h, 5 µM; inhibitor
The campaign covered roughly 13,000 compounds. About 3,200 (25%) showed an effect of 50% or more. The list shows a part of the results.
Enter the number, and then the unit.

>>> print(df.to_string())
                                 mol_smiles  obs_value
0  COc1cccc(-c2cccc(-c3ccc(NC(=O)c4ccc([N+](=O)[O-])o4)cc3)n2)c1     99.55%
1  COc1ccc(OC)c(-c2cccc(-c3cccc(NC(=O)c4ccc([N+](=O)[O-])o4)c3)n2)c1     113.4%
2  COc1cccc(-c2cc(-c3ccc(NC(=O)c4ccccc4)cc3)c3c(N)ncnc3n2)c1    -19.07%
3  O=C(Nc1cc(Oc2ccc(O)cc2)cc([N+](=O)[O-])c1)c1cc(-c2ccc(F)cc2)no1    -44.25%
4  Cc1ccc(-n2nc3ccc(NC(=O)c4ccc([N+](=O)[O-])o4)cc3n2)cc1C     20.82%
5  COc1ccccc1-c1cccc(-c2cccc(NC(=O)c3ccc([N+](=O)[O-])o3)c2)n1     105.3%

Next, consider the following compound.
Short answer on P. falciparum stage V gametocytes for CCN(CC)CCCNc1ncc2c(-c3ccc(NC(=O)Nc4cc(C(F)(F)F)ccc4F)cc3)nn(C)c2n1 , % Inhibition: 96.86%
